biological target: NMDAR2B (Homo sapiens); construct: expressed in transfected cells; host or cells: HEK cells (membrane extract); experiment: NMDAR agonist assay, [3H]MK-801 binding, NMDAR2B expressing HEK cell membranes; assay type: biochemical; settings: 50 μM glutamate
PROPERTY NAME: NMDAR2B: % maximal [3H]MK-801 binding relative to 1 mM glycine

# COMPOUND, TESTED SYSTEM, RESULT
data = [
    ("CC1CC(=O)N(c2ccc(F)cc2)C12CN(CC(N)=O)C2=O (single isomer, unassigned) [CF]", "NMDAR2B (Homo sapiens)", "+ (<100%=+)"),
    ("C[C@@H](O)[C@@H](C(=O)NCc1ccccc1)N1CC2(CCNC(=O)C2)C1=O (single isomer, unassigned) [CA]", "NMDAR2B (Homo sapiens)", "− (−=0)"),
    ("CC1CC(=O)N(c2ccc(F)cc2)C12CN(Cc1ccccc1)C2=O (single isomer, unassigned) [BX]", "NMDAR2B (Homo sapiens)", "+ (<100%=+)"),
    ("CC1CC(=O)N(c2ccc(F)cc2)C12CN(Cc1ccccc1)C2=O (single isomer, unassigned) [BY]", "NMDAR2B (Homo sapiens)", "− (−=0)"),
    ("CCN1CCC2(CC1=O)CN(Cc1ccc(OC)cc1)C2=O (single isomer, unassigned) [CK]", "NMDAR2B (Homo sapiens)", "− (−=0)"),
    ("CNC(=O)[C@H]([C@@H](C)O)N1CC2(CCNC(=O)C2)C1=O (single isomer, unassigned) [DA]", "NMDAR2B (Homo sapiens)", "− (−=0)"),
    ("CC1CC(=O)N(c2ccc(F)cc2)C12CN([C@H](C(N)=O)[C@@H](C)O)C2=O (single isomer, unassigned)", "NMDAR2B (Homo sapiens)", "− (−=0)"),
]

---

molecular target: NMDAR2B (Homo sapiens, UniProt Q13224); construct: expressed in transfected cells; host or cells: HEK cells (membrane extract); experiment: NMDAR agonist assay, [3H]MK-801 binding, NMDAR2B expressing HEK cell membranes; assay type: biochemical; conditions: 50 μM glutamate, read-out: NMDAR2B: % maximal [3H]MK-801 binding relative to 1 mM glycine
Sequence (Q13224 27-1484, species assumed, other chains not shown): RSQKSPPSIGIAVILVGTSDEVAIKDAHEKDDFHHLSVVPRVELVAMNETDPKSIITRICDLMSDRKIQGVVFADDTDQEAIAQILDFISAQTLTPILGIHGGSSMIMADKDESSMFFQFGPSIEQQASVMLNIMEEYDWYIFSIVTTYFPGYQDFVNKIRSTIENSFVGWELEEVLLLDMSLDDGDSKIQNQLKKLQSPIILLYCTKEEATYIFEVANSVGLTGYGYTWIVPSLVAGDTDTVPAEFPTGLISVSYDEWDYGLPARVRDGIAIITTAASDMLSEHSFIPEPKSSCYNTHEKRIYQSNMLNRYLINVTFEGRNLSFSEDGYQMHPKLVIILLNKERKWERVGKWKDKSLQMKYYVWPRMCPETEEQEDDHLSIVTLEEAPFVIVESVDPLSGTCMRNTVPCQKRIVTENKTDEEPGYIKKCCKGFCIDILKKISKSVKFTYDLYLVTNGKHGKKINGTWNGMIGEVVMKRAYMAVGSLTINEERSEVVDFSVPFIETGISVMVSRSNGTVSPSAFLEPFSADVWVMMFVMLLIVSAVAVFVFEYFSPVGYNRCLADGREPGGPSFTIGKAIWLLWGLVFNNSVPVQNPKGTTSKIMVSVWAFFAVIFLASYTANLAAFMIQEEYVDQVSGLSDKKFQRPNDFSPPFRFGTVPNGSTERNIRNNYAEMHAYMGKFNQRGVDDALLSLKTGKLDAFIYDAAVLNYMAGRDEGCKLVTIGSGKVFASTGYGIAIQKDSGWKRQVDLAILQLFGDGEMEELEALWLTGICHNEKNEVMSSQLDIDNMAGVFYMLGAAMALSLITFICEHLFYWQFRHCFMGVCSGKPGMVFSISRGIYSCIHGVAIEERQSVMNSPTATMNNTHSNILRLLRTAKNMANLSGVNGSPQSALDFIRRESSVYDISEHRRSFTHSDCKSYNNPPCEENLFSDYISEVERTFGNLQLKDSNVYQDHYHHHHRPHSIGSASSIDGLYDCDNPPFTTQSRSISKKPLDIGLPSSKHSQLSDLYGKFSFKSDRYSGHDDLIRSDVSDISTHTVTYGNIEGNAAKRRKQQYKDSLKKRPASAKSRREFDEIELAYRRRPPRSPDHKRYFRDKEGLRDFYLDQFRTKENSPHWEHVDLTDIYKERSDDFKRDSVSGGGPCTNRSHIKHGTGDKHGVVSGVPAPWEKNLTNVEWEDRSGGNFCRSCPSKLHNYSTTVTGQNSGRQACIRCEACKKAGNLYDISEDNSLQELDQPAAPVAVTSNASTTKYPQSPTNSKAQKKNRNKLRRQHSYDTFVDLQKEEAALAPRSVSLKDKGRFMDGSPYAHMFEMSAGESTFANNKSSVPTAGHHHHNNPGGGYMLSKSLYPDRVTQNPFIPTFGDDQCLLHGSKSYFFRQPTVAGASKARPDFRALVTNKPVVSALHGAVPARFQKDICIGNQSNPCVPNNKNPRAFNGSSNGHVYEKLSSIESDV
Emax for assorted compounds
PROPERTY NAME: Emax

# COMPOUND, RESULT
records = [
    ("CN1CC2(CCNC(=O)C2)C1=O (single isomer, unassigned) [DH]", "> 100%"),
    ("COc1ccc(CN2CC3(CCNC(=S)C3)C2=S)cc1 (single isomer, unassigned) [CP]", "< 100%"),
    ("COc1ccc(CN2CC3(CCN(CC(C)C)C(=O)C3)C2=O)cc1 (single isomer, unassigned) [CS]", "> 100%"),
    ("COc1ccc(CN2CC3(CCN(C)C(=O)C3)C2=O)cc1 (single isomer, unassigned) [CJ]", "> 100%"),
]
